target.or.test.system: D(1A) dopamine receptor (Bos taurus)
Sequence (Q95136 whole entry): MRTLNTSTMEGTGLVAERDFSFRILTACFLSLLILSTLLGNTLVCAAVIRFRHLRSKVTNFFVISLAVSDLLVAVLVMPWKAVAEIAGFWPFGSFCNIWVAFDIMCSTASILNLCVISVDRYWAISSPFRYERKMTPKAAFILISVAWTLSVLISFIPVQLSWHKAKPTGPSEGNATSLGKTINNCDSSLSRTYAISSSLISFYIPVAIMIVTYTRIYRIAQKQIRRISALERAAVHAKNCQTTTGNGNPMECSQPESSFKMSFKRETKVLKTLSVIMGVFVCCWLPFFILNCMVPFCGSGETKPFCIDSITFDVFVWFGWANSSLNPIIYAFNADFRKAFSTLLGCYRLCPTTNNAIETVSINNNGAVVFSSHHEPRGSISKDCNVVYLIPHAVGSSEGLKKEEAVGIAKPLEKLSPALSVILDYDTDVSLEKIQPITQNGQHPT
assay.method.text: Displacement of [3H]SCH-23390 from bovine striatal membrane Dopamine receptor D1
pKi: −log10 of the molar value.
measurement.kind: pKi

O=Cc1ccn(C2CCN(Cc3ccccc3)CC2)c1
4.21
c1ccc(CN2CCC(n3cccc3-c3cnco3)CC2)cc1
5.00
C#Cc1cccn1C1CCN(Cc2ccccc2)CC1
4.85
N#CC(C#N)=Cc1cccn1C1CCN(Cc2ccccc2)CC1
4.82
C(#Cc1cccn1C1CCN(Cc2ccccc2)CC1)c1ccccc1
4.80
c1ccc(CN2CCC(n3ccc(-c4cnco4)c3)CC2)cc1
4.41
Ic1cccn1C1CCN(Cc2ccccc2)CC1
4.96
c1ccc(CN2CCC(n3cccc3)CC2)cc1
4.47
N#CC(C#N)=Cc1ccn(C2CCN(Cc3ccccc3)CC2)c1
4.85
C[Si](C)(C)C#Cc1cccn1C1CCN(Cc2ccccc2)CC1
4.85
O=Cc1cccn1C1CCN(Cc2ccccc2)CC1
5.24

* * *

target.or.test.system: D(4) dopamine receptor (Homo sapiens, UniProt P21917)
Sequence (P21917 whole entry): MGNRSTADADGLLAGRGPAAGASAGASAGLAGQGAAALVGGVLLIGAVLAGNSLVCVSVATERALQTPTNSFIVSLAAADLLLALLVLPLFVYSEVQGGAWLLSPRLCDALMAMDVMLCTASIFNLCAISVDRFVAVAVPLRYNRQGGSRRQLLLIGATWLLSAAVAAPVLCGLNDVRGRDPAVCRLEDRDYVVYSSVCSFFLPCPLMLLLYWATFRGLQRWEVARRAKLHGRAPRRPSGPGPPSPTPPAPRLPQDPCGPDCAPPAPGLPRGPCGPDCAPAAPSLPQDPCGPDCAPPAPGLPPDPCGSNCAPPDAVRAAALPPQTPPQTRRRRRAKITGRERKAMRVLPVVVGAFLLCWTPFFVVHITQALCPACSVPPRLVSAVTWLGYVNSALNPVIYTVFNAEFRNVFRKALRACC
pKi: −log10 of the molar value.
Param threshold (6) applies to pKi; output t when value >= threshold, f when value < threshold.

N#CC(C#N)=Cc1ccn(C2CCN(Cc3ccccc3)CC2)c1
t
C(#Cc1cccn1C1CCN(Cc2ccccc2)CC1)c1ccccc1
f
C[Si](C)(C)C#Cc1cccn1C1CCN(Cc2ccccc2)CC1
f

* * *

target.or.test.system: D(2) dopamine receptor (Homo sapiens)
assay.method.text: Displacement of [3H]spiperone from human Dopamine receptor D2L expressed in CHO cells
Format: cell-based
pKi: −log10 of the molar value.
measurement.kind: pKi

O=Cc1cccn1C1CCN(Cc2ccccc2)CC1
5.85
N#CC(C#N)=Cc1ccn(C2CCN(Cc3ccccc3)CC2)c1
4.89
O=Cc1ccn(C2CCN(Cc3ccccc3)CC2)c1
4.31
c1ccc(CN2CCC(n3cccc3-c3cnco3)CC2)cc1
6.21
N#CC(C#N)=Cc1cccn1C1CCN(Cc2ccccc2)CC1
4.96
c1ccc(CN2CCC(n3cccc3)CC2)cc1
5.07
c1ccc(CN2CCC(n3ccc(-c4cnco4)c3)CC2)cc1
5.47
C(#Cc1cccn1C1CCN(Cc2ccccc2)CC1)c1ccccc1
5.00
C#Cc1cccn1C1CCN(Cc2ccccc2)CC1
5.18
Ic1cccn1C1CCN(Cc2ccccc2)CC1
5.07
C[Si](C)(C)C#Cc1cccn1C1CCN(Cc2ccccc2)CC1
5.21

* * *

target.or.test.system: UniProt:P14416
assay.method.text: Displacement of [3H]spiperone from human Dopamine receptor D2S expressed in CHO cells
Format: cell-based
measurement.kind: Ki (µM)

C#Cc1cccn1C1CCN(Cc2ccccc2)CC1
6.3
O=Cc1ccn(C2CCN(Cc3ccccc3)CC2)c1
65
c1ccc(CN2CCC(n3cccc3-c3cnco3)CC2)cc1
0.32
N#CC(C#N)=Cc1cccn1C1CCN(Cc2ccccc2)CC1
7.8
c1ccc(CN2CCC(n3cccc3)CC2)cc1
9.8

* * *

pKi: −log10 of the molar value.
Assay read-out pKi; system under study: D(3) dopamine receptor (Homo sapiens).
Sequence (P35462 whole entry): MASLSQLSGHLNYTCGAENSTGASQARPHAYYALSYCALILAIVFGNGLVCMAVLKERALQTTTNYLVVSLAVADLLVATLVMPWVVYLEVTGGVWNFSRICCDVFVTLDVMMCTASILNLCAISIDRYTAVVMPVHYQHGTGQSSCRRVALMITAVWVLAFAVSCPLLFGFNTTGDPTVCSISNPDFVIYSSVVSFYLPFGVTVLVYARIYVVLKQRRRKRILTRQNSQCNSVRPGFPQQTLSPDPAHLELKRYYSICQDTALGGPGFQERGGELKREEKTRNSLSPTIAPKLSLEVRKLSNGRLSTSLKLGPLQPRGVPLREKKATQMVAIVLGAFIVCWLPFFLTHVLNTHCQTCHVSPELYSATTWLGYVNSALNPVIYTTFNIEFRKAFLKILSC
measurement.kind: pKi

c1ccc(CN2CCC(n3ccc(-c4cnco4)c3)CC2)cc1
5.17
N#CC(C#N)=Cc1cccn1C1CCN(Cc2ccccc2)CC1
5.29
c1ccc(CN2CCC(n3cccc3)CC2)cc1
4.82
O=Cc1ccn(C2CCN(Cc3ccccc3)CC2)c1
4.51

* * *

target.or.test.system: D(2) dopamine receptor (Homo sapiens, UniProt P14416)
Sequence (P14416 whole entry): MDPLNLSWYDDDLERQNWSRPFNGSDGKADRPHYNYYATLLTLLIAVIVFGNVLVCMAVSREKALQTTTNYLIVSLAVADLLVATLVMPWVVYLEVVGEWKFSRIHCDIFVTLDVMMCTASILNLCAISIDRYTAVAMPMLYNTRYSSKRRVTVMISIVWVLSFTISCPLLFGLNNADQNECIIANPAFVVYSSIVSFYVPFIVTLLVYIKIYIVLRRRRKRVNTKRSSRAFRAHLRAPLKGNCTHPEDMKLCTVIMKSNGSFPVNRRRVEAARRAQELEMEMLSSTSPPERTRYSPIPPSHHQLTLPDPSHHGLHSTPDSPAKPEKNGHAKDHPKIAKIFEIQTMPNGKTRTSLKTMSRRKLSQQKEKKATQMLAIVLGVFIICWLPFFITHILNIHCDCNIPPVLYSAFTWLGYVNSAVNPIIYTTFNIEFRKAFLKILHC
assay.method.text: Displacement of [3H]spiperone from human Dopamine receptor D2S expressed in CHO cells
Format: cell-based
measurement.kind: Ki (µM)

N#CC(C#N)=Cc1ccn(C2CCN(Cc3ccccc3)CC2)c1
18
O=Cc1cccn1C1CCN(Cc2ccccc2)CC1
1.5
C[Si](C)(C)C#Cc1cccn1C1CCN(Cc2ccccc2)CC1
4.9
c1ccc(CN2CCC(n3ccc(-c4cnco4)c3)CC2)cc1
3.2
Ic1cccn1C1CCN(Cc2ccccc2)CC1
5.3
C(#Cc1cccn1C1CCN(Cc2ccccc2)CC1)c1ccccc1
8.3
